Just for reference, PubChem BioAssay (NCI) is where these values come from.

Tested on: MALME-3M melanoma
Assay: NCI tumour cell line growth inhibition, 48 h
Documented TGI across a set of compounds

>  <compound>
COc1ccccc1NC(=O)CC(=O)N/N=C/c1ccc(N(CCC#N)S(=O)(=O)c2ccccc2)cc1

>  <TGI>
> 100 µM

$$$$
>  <compound>
CCC(C#N)NCc1cccc(CNC(C#N)CC)c1 (stereo not given)

>  <TGI>
> 100 µM

$$$$
>  <compound>
Cn1c(-c2cccc([N+](=O)[O-])c2)[n+](C)c2ccccc21

>  <TGI>
> 100 µM

$$$$
>  <compound>
COc1ccc(SCc2cc(OCc3ccccc3)c(OCc3ccccc3)c(OCc3ccccc3)c2)cc1

>  <TGI>
3.37 µM

$$$$
>  <compound>
Cc1cnc(C(=O)Nc2nc3ccc(S(=O)(=O)Nc4ccc(C5(C(F)(F)F)CC5)cc4)cc3[nH]2)cn1

>  <TGI>
8.65 µM

$$$$
>  <compound>
CC1(C)C2C=CC1C(=O)CC2 (stereo not given)

>  <TGI>
> 100 µM

$$$$
>  <compound>
CSc1nc(SC)c2c(CO)c(Br)n(Cc3ccccc3)c2n1

>  <TGI>
> 100 µM

$$$$
>  <compound>
O=c1cccccc1[O-].O=c1cccccc1[O-].O=c1cccccc1[O-].[La+3]

>  <TGI>
31.9 µM

$$$$
>  <compound>
COC(=O)C1(C)C=CC(=O)C2(C)C1C(O)C1OC3CC(c4ccoc4)C(C)=C3C1(C)C2CC(=O)O (stereo not given)

>  <TGI>
> 100 µM

$$$$
>  <compound>
N#Cc1cnc(N)nc1NCC1(CO)CC(CCc2ccccc2)C1 (stereo not given)

>  <TGI>
> 100 µM

$$$$

---

Documented TGI across a set of compounds
Test system: SF-295 CNS
Assay: NCI tumour cell line growth inhibition, 48 h

>  <compound>
COc1cc(C(O)(CC#N)c2cc3c(cc2Br)OCO3)cc(OC)c1OC (stereo not given)

>  <target-of-assay>
SF-295 CNS

>  <readout-relation>
>

>  <TGI / µM>
100

$$$$
>  <compound>
CC1(C)CCC[C@]2(C)[C@H]3[C@H](C#N)c4cc(O)c(O)cc4O[C@@]3(C)CC[C@@H]12

>  <target-of-assay>
SF-295 CNS

>  <readout-relation>
>

>  <TGI / µM>
10

$$$$
>  <compound>
CCCSS[C@H]1NC(=O)[C@H]1NC(=O)COc1ccccc1

>  <target-of-assay>
SF-295 CNS

>  <readout-relation>
>

>  <TGI / µM>
100

$$$$
>  <compound>
O=c1c(-c2ccccc2)coc2cc(OC/C(=N/O)c3ccccc3)ccc12

>  <target-of-assay>
SF-295 CNS

>  <readout-relation>
=

>  <TGI / µM>
74.9

$$$$
>  <compound>
CCC(C#N)NCc1cccc(CNC(C#N)CC)c1 (stereo not given)

>  <target-of-assay>
SF-295 CNS

>  <readout-relation>
=

>  <TGI / µM>
33.7

$$$$

---

System: 786-0 renal
Assay: NCI tumour cell line growth inhibition, 48 h; in the data active = GI50 below about 0.43 µM; inactive = the rest
Classes used: active, inactive

>  <compound>
CC(C)=CC1=C2C3=C(C(=O)C4(O)Oc5c(C)c6c7c(c5OC24C)[C@@H](C)CC[C@@H]7[C@@H](C)C[C@H]6C=C(C)C)C(C)CCC3C(C)C1 (some centres not stated)

>  <class-assignment>
inactive

$$$$
>  <compound>
N#C/C(=C\c1ccc(Br)cc1)n1nnc2ccc(F)cc21

>  <class-assignment>
inactive

$$$$
>  <compound>
C=C1CC2(OC1=O)C(=O)Nc1ccccc12 (configuration not stated)

>  <class-assignment>
inactive

$$$$
>  <compound>
OCC#Cc1ccccc1C#CCCCCCC#Cc1ccccc1C#CCO

>  <class-assignment>
inactive

$$$$
>  <compound>
Cc1cnc(C(=O)NNc2nc3sc4c(c3c(=O)n2C)C(C)CCC4)cn1 (configuration not stated)

>  <class-assignment>
inactive

$$$$
>  <compound>
O=C(OC[C@H]1O[C@H](OC(=O)c2cc(O)c(O)c(OC(=O)c3cc(O)c(O)c(O)c3)c2)[C@H](OC(=O)c2cc(O)c(O)c(OC(=O)c3cc(O)c(O)c(O)c3)c2)[C@@H](OC(=O)c2cc(O)c(O)c(OC(=O)c3cc(O)c(O)c(O)c3)c2)[C@@H]1OC(=O)c1cc(O)c(O)c(OC(=O)c2cc(O)c(O)c(O)c2)c1)c1cc(O)c(O)c(OC(=O)c2cc(O)c(O)c(O)c2)c1

>  <class-assignment>
inactive

$$$$
>  <compound>
Oc1ccc2oc3ncc(Br)c(-c4ccccc4)c3c2c1

>  <class-assignment>
inactive

$$$$
>  <compound>
Cc1ncc(C(=O)Nc2ccc(CN3CCN(C)CC3)c(C(F)(F)F)c2)cc1C#Cc1cnc(N)cc1C#N

>  <class-assignment>
active

$$$$
>  <compound>
C=C1C(=O)O[C@H]2[C@H]1CC/C(Cn1cc(-c3ccccc3C(F)(F)F)nn1)=C\CC[C@@]1(C)O[C@@H]21

>  <class-assignment>
inactive

$$$$
>  <compound>
O=C1c2ccccc2-c2c1c1ccccc1c(=O)n2CCCn1ccnc1

>  <class-assignment>
inactive

$$$$
>  <compound>
C#CCOc1cccc(Nc2ncnc3cc(NC(=O)CCl)ccc23)c1

>  <class-assignment>
inactive

$$$$
>  <compound>
Cn1cc(-c2ccc(-c3ccc(C4=NC5(CC5)C(=O)N4C[C@@H]4CCN(C(=O)C5CC5)C4)cc3)cc2)cn1

>  <class-assignment>
inactive

$$$$

---

Tested on: NCI-H23 lung
Experiment: NCI tumour cell line growth inhibition, 48 h
readout: TGI

>  <compound>
Cn1cc(-c2ccc(-c3ccc(C4=NC5(CC5)C(=O)N4C[C@@H]4CCN(C(=O)C5CC5)C4)cc3)cc2)cn1

>  <target-of-assay>
NCI-H23 lung

>  <result>
41.8 µM

$$$$
>  <compound>
Cc1cc(S(=O)(=O)Nc2nc3ccccc3c(=O)n2N)c(S)cc1Cl

>  <target-of-assay>
NCI-H23 lung

>  <result>
> 100 µM

$$$$
>  <compound>
O=[N+]([O-])c1cc(-c2nc(-c3ccccc3)c(-c3ccccc3)[nH]2)c(O)c([N+](=O)[O-])c1

>  <target-of-assay>
NCI-H23 lung

>  <result>
36.1 µM

$$$$
>  <compound>
CN(C)c1ccc(/C=c2\sc3nc4ccccc4n3c2=O)cc1

>  <target-of-assay>
NCI-H23 lung

>  <result>
> 100 µM

$$$$
>  <compound>
N/C(=N\N=C\c1ccc2c(c1)OCCO2)NO

>  <target-of-assay>
NCI-H23 lung

>  <result>
> 100 µM

$$$$
>  <compound>
O=Cc1c(O)c(C(=O)Nc2ccc3[nH]c(=O)[nH]c3c2)cc2ccccc12

>  <target-of-assay>
NCI-H23 lung

>  <result>
> 100 µM

$$$$
>  <compound>
COC(=O)CC[C@H](Cc1ccccc1)NC(=O)c1csc([C@@H](C[C@H](C(C)C)N(C)C(=O)[C@@H](NC(=O)[C@H]2CCCCN2C)C(C)C)OC(C)=O)n1

>  <target-of-assay>
NCI-H23 lung

>  <result>
> 25 µM

$$$$
>  <compound>
CC(=O)C1CC[C@@H]2[C@H](CC[C@]3(C)[C@@H](O)CC[C@@H]23)[C@H]1C(=O)O (some centres undefined)

>  <target-of-assay>
NCI-H23 lung

>  <result>
> 100 µM

$$$$
>  <compound>
C(=C\c1ccco1)/c1cccc(/C=C/c2ccco2)n1

>  <target-of-assay>
NCI-H23 lung

>  <result>
> 50 µM

$$$$
>  <compound>
COc1ccc(OCC(=O)O)c(C(=O)CCC(=O)O)c1

>  <target-of-assay>
NCI-H23 lung

>  <result>
> 100 µM

$$$$
>  <compound>
N#Cc1ccc(-n2c3ccccc3c3ccc4c(c32)C(=O)C=CC4=O)cc1

>  <target-of-assay>
NCI-H23 lung

>  <result>
24.4 µM

$$$$
>  <compound>
Cc1cc(N2CCOCC2)cc2[nH]c(-c3c(NC[C@@H](O)c4cccc(Cl)c4)cc[nH]c3=O)nc12

>  <target-of-assay>
NCI-H23 lung

>  <result>
11.3 µM

$$$$
>  <compound>
Cn1cc2ccccc2c1-c1nc(F)nc(OCC(=O)[C@H]2CCC3[C@@H]4CCC5=CC(=O)CC[C@]5(C)C4[C@@H](O)C[C@@]32C)n1 (some centres undefined)

>  <target-of-assay>
NCI-H23 lung

>  <result>
16.5 µM

$$$$
>  <compound>
Cc1cc(C)c(-n2c(-c3ccc(Br)cc3)cs/c2=N\N=C2C=C(C(C)(C)C)C(=O)C(C(C)(C)C)=C2)c(C)c1

>  <target-of-assay>
NCI-H23 lung

>  <result>
> 100 µM

$$$$
>  <compound>
CCOc1ccc2nc(NC(=O)C(=O)C(c3cnc4ccccc4n3)[N+](=O)[O-])sc2c1 (centres undefined)

>  <target-of-assay>
NCI-H23 lung

>  <result>
> 100 µM

$$$$
>  <compound>
CCCCCCCCCCNC(=O)CCC(NC(=O)c1ccc(N(C)Cc2cnc3nc(N)nc(N)c3n2)cc1)C(=O)NCCCCCCCCCC (centres undefined)

>  <target-of-assay>
NCI-H23 lung

>  <result>
54.4 µM

$$$$
>  <compound>
COc1cccc(NC(=O)/C(Cc2nc3ccccc3nc2C)=N/NC(=O)C[n+]2ccccc2)c1

>  <target-of-assay>
NCI-H23 lung

>  <result>
> 100 µM

$$$$
>  <compound>
Cn1cc(C(=O)C[n+]2ccccc2)c2ccccc21

>  <target-of-assay>
NCI-H23 lung

>  <result>
> 100 µM

$$$$
>  <compound>
CCCCCCCCCCCCC(O)[C@H]1CC[C@H](C(O)CCCCCC(=O)CCCCC2CC(C(C)=O)C(=O)O2)O1 (some centres undefined)

>  <target-of-assay>
NCI-H23 lung

>  <result>
63.8 µM

$$$$
>  <compound>
CCC(C#N)NCc1cccc(CNC(C#N)CC)c1 (centres undefined)

>  <target-of-assay>
NCI-H23 lung

>  <result>
> 100 µM

$$$$
>  <compound>
COc1cccc(/C=N/C(/N=C/c2cccc(OC)c2O)c2cccc(OC)c2O)c1O

>  <target-of-assay>
NCI-H23 lung

>  <result>
> 100 µM

$$$$
>  <compound>
Cn1c(-c2cccc([N+](=O)[O-])c2)[n+](C)c2ccccc21

>  <target-of-assay>
NCI-H23 lung

>  <result>
> 100 µM

$$$$
>  <compound>
Nn1c(Cc2ccc([N+](=O)[O-])cc2)n[nH]c1=O

>  <target-of-assay>
NCI-H23 lung

>  <result>
> 100 µM

$$$$
>  <compound>
CCCC(=O)OC1C(CO)OC(n2cc(F)c(=O)[nH]c2=O)C1F (centres undefined)

>  <target-of-assay>
NCI-H23 lung

>  <result>
> 100 µM

$$$$
>  <compound>
COc1ccc(-c2ccc(-c3ccc(C(=N)N)o3)o2)cc1

>  <target-of-assay>
NCI-H23 lung

>  <result>
18.3 µM

$$$$
>  <compound>
C=C1CC2(OC1=O)C(=O)Nc1ccccc12 (centres undefined)

>  <target-of-assay>
NCI-H23 lung

>  <result>
23.1 µM

$$$$
>  <compound>
Cc1cc(=O)oc2c(CNC(Cc3ccccc3)C(=O)O)c(O)ccc12 (centres undefined)

>  <target-of-assay>
NCI-H23 lung

>  <result>
> 100 µM

$$$$
>  <compound>
C=C1C(=O)O[C@H]2[C@H]1CC/C(Cn1cc(-c3ccccc3C(F)(F)F)nn1)=C\CC[C@@]1(C)O[C@@H]21

>  <target-of-assay>
NCI-H23 lung

>  <result>
3.57 µM

$$$$
>  <compound>
COc1cc(CNNC(N)=S)cc(OC)c1OC

>  <target-of-assay>
NCI-H23 lung

>  <result>
> 100 µM

$$$$
>  <compound>
CC1(C)CCC[C@]2(C)[C@H]3[C@H](C#N)c4cc(O)c(O)cc4O[C@@]3(C)CC[C@@H]12

>  <target-of-assay>
NCI-H23 lung

>  <result>
> 10 µM

$$$$
>  <compound>
CC(=O)O[C@H]1[C@H](OC(=O)CC(C)(O)CC(=O)O)C[C@]2(C)C3=C(CCC2C1(C)C)[C@]1(C)CC[C@H]([C@H]2CC[C@H](C(C)(C)O)OC2O)[C@@]1(C)[C@@H](O)C3 (some centres undefined)

>  <target-of-assay>
NCI-H23 lung

>  <result>
32.2 µM

$$$$
>  <compound>
OCCNCNc1nc(NCNCCO)nc(N(CNCCO)CNCCO)n1

>  <target-of-assay>
NCI-H23 lung

>  <result>
46.1 µM

$$$$
>  <compound>
Cc1cc(Cl)ccc1NC(=O)CC1SC(=Nc2ccccc2Cl)NC1=O (centres undefined)

>  <target-of-assay>
NCI-H23 lung

>  <result>
> 100 µM

$$$$
>  <compound>
O=c1c(O)c(-c2cc(O)c(O)c(O)c2)oc2cc(O)cc(O)c12

>  <target-of-assay>
NCI-H23 lung

>  <result>
35.4 µM

$$$$
>  <compound>
CN(C)c1nc(Cl)c2c(-c3ccccc3)c(-c3ccccc3)oc2n1

>  <target-of-assay>
NCI-H23 lung

>  <result>
> 100 µM

$$$$
>  <compound>
O=c1c2cc(Cl)ccc2sc2cccc(Cl)c12

>  <target-of-assay>
NCI-H23 lung

>  <result>
> 100 µM

$$$$
>  <compound>
Oc1ccc(-c2nc3ccc(Cl)cc3s2)cc1

>  <target-of-assay>
NCI-H23 lung

>  <result>
36.5 µM

$$$$
>  <compound>
CCN(CC)c1ccc(N=Nc2ccc(-c3nc4ccc[n+](C)c4o3)cc2)cc1

>  <target-of-assay>
NCI-H23 lung

>  <result>
28.6 µM

$$$$
>  <compound>
CC(C)(C)c1cc(O)ccc1O

>  <target-of-assay>
NCI-H23 lung

>  <result>
> 100 µM

$$$$
